- System: MDA-MB-435
- assay_procedure: NCI tumour cell line growth inhibition, 48 h
List of log10 TGI values.
observation_type: log10 TGI (log10 of the value in µM)

INSERT INTO assay_data (molecule, target_of_assay, observation_type, measured) VALUES
  ('Cc1c2cc[nH]c(=O)c2c(C)c2c1[nH]c1cc(OCCN3CCN(C)CC3)ccc12', 'MDA-MB-435', 'log10 TGI', 0.39),
  ('Cc1nc2sccn2c1/C=C1/C(=O)Nc2ccccc21', 'MDA-MB-435', 'log10 TGI', 1.04),
  ('COC1=CC(c2ccc[nH]2)=N/C1=C\c1[nH]c(C)c(C(=O)OCc2ccccc2)c1C', 'MDA-MB-435', 'log10 TGI', 0.12),
  ('Cc1c2cnccc2c(C)c2c1c1cc(C3OCCCO3)ccc1n2C', 'MDA-MB-435', 'log10 TGI', 0.19),
  ('COc1cc(/C(Cl)=C/C=C/C(=O)c2c(C)[n+]([O-])c3ccc(Cl)cc3[n+]2[O-])cc(OC)c1OC', 'MDA-MB-435', 'log10 TGI', 0.24),
  ('C=C1C(=O)O[C@H]2[C@H]1CC/C(CNC(=O)/C=C/c1ccc(Br)cc1)=C\CC[C@@]1(C)O[C@@H]21', 'MDA-MB-435', 'log10 TGI', 0.32),
  ('O=[N+]([O-])c1ccc(Nc2ccccc2-c2ccccc2)c2nonc12', 'MDA-MB-435', 'log10 TGI', 1.66),
  ('COC(=O)c1c2c(cc3c1CC1(Cc4ccccc4C1=O)C3)CCC2 (stereo not drawn)', 'MDA-MB-435', 'log10 TGI', 1.61),
  ('CO[C@H](C(=O)[C@@H](O)[C@@H](C)O)[C@@H]1Cc2cc3cc(O[C@H]4C[C@@H](O[C@H]5C[C@@H](O)[C@H](O)C(C)O5)[C@H](O)C(C)O4)c(C)c(O)c3c(O)c2C(=O)[C@H]1O[C@H]1C[C@@H](O[C@H]2C[C@@H](O[C@H]3C[C@@H](OC)[C@H](O)C(C)O3)[C@@H](O)C(C)O2)C(O)(O)C(C)O1 (stereo partly drawn)', 'MDA-MB-435', 'log10 TGI', 0.55),
  ('Cn1cc(-c2nonc2-c2c[nH]c3ccccc23)c2ccccc21', 'MDA-MB-435', 'log10 TGI', -0.31),
  ('C=CCC1(O)c2ccccc2C(=O)c2c(O)ccc(O)c21 (stereo not drawn)', 'MDA-MB-435', 'log10 TGI', 0.81),
  ('O=C1c2c(F)c(F)c(F)c(F)c2SC2=NCCN12', 'MDA-MB-435', 'log10 TGI', 0.93),
  ('COc1ccc(C#Cc2ccccc2C#CCCCCO)cc1', 'MDA-MB-435', 'log10 TGI', 1.59),
  ('CC(=O)C1=C(O)C=C2Oc3c(C(=O)/C=C/c4cc(C(F)(F)F)cc(C(F)(F)F)c4)c(O)c(C)c(O)c3[C@]2(C)C1=O', 'MDA-MB-435', 'log10 TGI', 0.37),
  ('CCOC(=O)c1cccc(NC(=O)CCl)c1', 'MDA-MB-435', 'log10 TGI', 0.87);

====

Catalogue of TGI values
- Tested on: NCI-H460 lung
- assay_procedure: NCI tumour cell line growth inhibition, 48 h
observation_type: TGI

INSERT INTO measurements (molecule, measured) VALUES
  ('O=C(O)c1ccccc1Cc1ccco1', '> 100 µM'),
  ('O=S(=O)(Oc1ccc2oc3ccccc3c2c1-c1c(OS(=O)(=O)C(F)(F)F)ccc2oc3ccccc3c12)C(F)(F)F', '> 100 µM'),
  ('O=C1C(N2CCCC2)=CC(=O)c2c(O)c(N3CCCC3)c(Cl)c(O)c21', '> 10 µM'),
  ('O=C(NCCCCCCCCNC(=O)c1cnc2ccccc2n1)c1cnc2ccccc2n1', '> 100 µM'),
  ('CC12CC3C(CC1SCC(=O)O2)C3(C)C (configuration not stated)', '> 100 µM'),
  ('CC(C)=CCN=C(N)N', '> 100 µM'),
  ('C1CC2=C(C1)[Se]C(=C1Sc3nsnc3S1)[Se]2', '> 100 µM'),
  ('[O-]/[N+](=C\c1ccccc1)[C@H](COCc1ccccc1)c1ccccc1', '> 100 µM'),
  ('CO[C@H](C(=O)[C@@H](O)[C@@H](C)O)[C@@H]1Cc2cc3cc(O[C@H]4C[C@@H](O[C@H]5C[C@@H](O)[C@H](O)C(C)O5)[C@H](O)C(C)O4)c(C)c(O)c3c(O)c2C(=O)[C@H]1O[C@H]1C[C@@H](O[C@H]2C[C@@H](O[C@H]3C[C@@H](OC)[C@H](O)C(C)O3)[C@@H](O)C(C)O2)C(O)(O)C(C)O1 (some centres not stated)', '> 25 µM'),
  ('O=C1NC(N/N=C\C(O)C(O)C(O)CO)=N/C1=C/c1ccccc1 (configuration not stated)', '> 100 µM'),
  ('CC(C)(C)OC(=O)CN1CCNCCNCC1', '> 100 µM'),
  ('C=CCC1OC(C)(C)Oc2ccc(OCOCCOC)cc21 (configuration not stated)', '> 100 µM');

====

Entries and their TGI
- System: MOLT-4 leukemia
- assay_procedure: NCI tumour cell line growth inhibition, 48 h
observation_type: TGI

INSERT INTO measurements (record_smiles, observation_type, measured) VALUES
  ('O=C1Oc2ccccc2C(=O)/C1=C/N1C(=O)N/C(=C\c2ccccc2O)C1=O', 'TGI', '> 100 µM'),
  ('CC(=O)N1CCN(C2=Nc3ccccc3CO2)C1=S', 'TGI', '> 100 µM'),
  ('C=C(CNC(=O)Nc1ccc(-c2ccccc2)cc1)c1ccc(C(=O)Nc2ccccc2N)cc1', 'TGI', '> 100 µM');

====

- Test system: M14 melanoma
- assay_procedure: NCI tumour cell line growth inhibition, 48 h
Recorded TGI, one value per entry.
observation_type: TGI

INSERT INTO measurements (compound, measured) VALUES
  ('COc1ccc(-c2[nH]ncc2-c2cc3c(c(OC)c2)OCC(=O)N3)cc1', '> 89.2 µM'),
  ('CN1C(=O)c2c(ccc3c2OCO3)C2C(O)Cc3cc4c(cc3C21)OCO4 (stereo unspecified)', '> 100 µM'),
  ('C1=C(c2ccccc2)CN(c2ccccc2)OC1', '> 100 µM'),
  ('COc1ccc(-c2nc(N)c(C#N)c3c2CCS(=O)(=O)c2ccc(C)cc2-3)cc1OC', '> 100 µM'),
  ('CCCC(=O)O', '> 18700 µM'),
  ('O=C1C=CC2CCC1C2 (stereo unspecified)', '> 100 µM');

====

- System: NCI/ADR-RES ovarian
- assay_procedure: NCI tumour cell line growth inhibition, 48 h
The entries below are paired with their reported TGI.
observation_type: TGI

INSERT INTO assay_data (molecule, observation_type, measured) VALUES
  ('CN1C(=O)c2c(ccc3c2OCO3)C2C(O)Cc3cc4c(cc3C21)OCO4 (stereo not drawn)', 'TGI', '8.28 µM'),
  ('O=C(CP(c1ccccc1)c1ccccc1)c1cccc(C(=O)CP(c2ccccc2)c2ccccc2)c1', 'TGI', '> 100 µM'),
  ('CNC(=O)c1ccccc1-[s+]1c2ccccc2c(=O)n1C (stereo not drawn)', 'TGI', '> 100 µM');

====

# TGI annotations
- System: SW-620 colon
- assay_procedure: NCI tumour cell line growth inhibition, 48 h
observation_type: TGI

INSERT INTO results (compound, observation_type, measured) VALUES
  ('COc1cccc([C@H]2CC(=O)c3cc4c(cc3N2)OCO4)c1', 'TGI', '> 100 µM'),
  ('Cc1[nH]ncc1-c1cc2nc(C3CC4CCN3CC4)[nH]c(=O)c2s1 (stereo unspecified)', 'TGI', '> 100 µM'),
  ('N#C/C(=C\c1ccccc1O)C(N)=O', 'TGI', '> 100 µM'),
  ('COc1ccc(-c2[nH]ncc2-c2cc3c(c(OC)c2)OCC(=O)N3)cc1', 'TGI', '> 54 µM'),
  ('COC(=O)c1c2c(cc3c1CC1(Cc4ccccc4C1=O)C3)CCC2 (stereo unspecified)', 'TGI', '> 100 µM'),
  ('O=C(c1ccccc1)c1ccc2c(c1)nc1n2C(c2c(Cl)cccc2Cl)SC1 (stereo unspecified)', 'TGI', '> 100 µM');

====

- Tested on: HCT-116 colon
- assay_procedure: NCI tumour cell line growth inhibition, 48 h; in the data active means GI50 below about 0.43 µM; inactive means the rest
Possible outcomes: 1 (active), -1 (inactive)

INSERT INTO results (compound, label_class) VALUES
  ('CCC[CH2][Sn]([CH2]CCC)([O]C(=O)c1c(F)cccc1F)[O]C(=O)c1c(F)cccc1F', -1),
  ('CC(=O)N1CCN(C2=Nc3ccccc3CO2)C1=S', -1),
  ('COc1cccc(C2CC(c3cc(OC)c(OC)c(OC)c3)=NN2)c1 (stereo unspecified)', -1),
  ('O=C(/C=C/c1ccc(B(O)O)cc1)/C=C/c1ccc(B(O)O)cc1', 1),
  ('Cc1nc2sccn2c1/C=C1/C(=O)Nc2ccccc21', -1),
  ('CC1=C([Se]CC(OC(=O)[C@@H](CSSC(C)(C)C)NC(=O)OC(C)(C)C)C(=O)NC(C)(C)C)C(=O)c2ccccc2C1=O (stereo partly specified)', -1);
